Experiment Notes: log P determined by HPLC analysis
Format: physicochemical
Experimental Parameters: pH 2.5; read-out: log P (pH 2.5)
Assay Metric: chromatographic logP
Keep it simple and answer with nothing but the number.

Exam item: For O=C(c1ccccc1Cl)C1CC(c2ccccc2)N(C(=O)c2ccccc2Cl)C1=O (stereo not shown) [Example G(II)-20] , what is its reported chromatographic logP?
Marked response: 3.91

====

Experiment Notes: log P determined by HPLC analysis
Assay type: physicochemical
Experimental Parameters: pH 2.3, HPLC; read-out: log P (pH 2.3)
Assay Metric: chromatographic logP
API note: the answer field is a bare number with no unit suffix.

Exam item: Give the measured chromatographic logP of O=C1CCC(c2ccc(-c3ccc(OC(F)(F)C(F)F)cc3)cc2)N1 (stereo not shown) .
Marked response: 2.79

Exam item: Entry under review: CC(C)(C)OC(=O)NC(CCC(=O)c1ccccc1Cl)c1ccc(-c2ccc(OC(F)(F)C(F)F)cc2)cc1 (stereo not shown) . Reported chromatographic logP?
Marked response: 4.94

Exam item: Look up chromatographic logP for this compound: FC(F)C(F)(F)Oc1ccc(-c2ccc(C3CCC(c4ccccc4Cl)=N3)cc2)cc1 (stereo not shown)
Marked response: 4.01

Next item in the queue.
Exam item: # lookup: chromatographic logP of CC(C)(C)OC(=O)N1C(=O)CCC1c1ccc(-c2ccc(OC(F)(F)C(F)F)cc2)cc1 (stereo not shown)
Marked response: 3.96
